The values you see were collected from PubChem BioAssay (NCATS).

- Tested on: Tov-21-G
- ASSAY_PROTOCOL: Primary qHTS to identify gynecologic anti-cancer compounds using libraries of approved drugs and bioactive compounds (AID 1345084); also: % is scaled to controls: 0 for no effect and ±100 for the full control effect; nearly all actives have a fitted effect of over 55% in size
- RUN_CONDITIONS: Gynecologic cancer cell panel viability, ATPlite luminescence, 48 h; series mostly up to 57.5 µM
Inconclusive results are not listed. Calls of active or inactive are those of the source. Calls follow the shape of the dose curve; as a rule, active = well fitted cell-killing curve with a large enough effect; inconclusive = small, poorly fitted or top-dose-only effect, or effect the other way; inactive = flat fitted curve, though single readings scatter.
MEASURE_NAME: activity change, negative = cytotoxicity

The examples below pair each entry with its known result.
[
  {
    "MOLECULE": "CCOc1ccc(C(Nc2ccccn2)c2ccc3ccc(C)nc3c2O)cc1C (stereo unspecified)",
    "activity change, negative = cytotoxicity": "inactive"
  },
  {
    "MOLECULE": "N#CC1C(=O)Nc2scc(-c3ccc(-c4ccccc4O)cc3)c2C1=O (stereo unspecified)",
    "activity change, negative = cytotoxicity": "inactive"
  },
  {
    "MOLECULE": "C[C@@H]1O[C@@H](O[C@H]2[C@H](O[C@H]3CC[C@@]4(C)C(CC[C@]5(C)C4CC=C4C6CC(C)(C)CC[C@]6(C(=O)O[C@@H]6O[C@H](CO[C@@H]7O[C@H](CO)[C@@H](O[C@@H]8O[C@@H](C)[C@H](O)[C@@H](O)[C@H]8O)[C@H](O)[C@H]7O)[C@@H](O)[C@H](O)[C@H]6O)CC[C@]45C)[C@]3(C)CO)OC[C@H](O)[C@@H]2O)[C@H](O)[C@H](O)[C@H]1O (stereo partly specified)",
    "activity change, negative = cytotoxicity": "8.28% [at 6.55 µM] (inactive)"
  },
  {
    "MOLECULE": "C[C@]12CC[C@@H]3c4ccc(O[C@@H]5O[C@H](C(=O)O)[C@@H](O)[C@H](O)[C@H]5O)cc4CC[C@H]3[C@@H]1CCC2=O",
    "activity change, negative = cytotoxicity": "inactive"
  },
  {
    "MOLECULE": "OC[C@H]1O[C@@H](OC(CCCCc2ccc(O)cc2)CCc2ccc(O)cc2)[C@H](O[C@@H]2OC[C@](O)(CO)[C@H]2O)[C@@H](O)[C@@H]1O (stereo partly specified)",
    "activity change, negative = cytotoxicity": "inactive"
  }
]

*Q* State, in one line, measured activity change, negative = cytotoxicity of COc1cc(C2c3cc(O)c(OC)cc3CC(CO)C2CO)ccc1O (stereo unspecified)
*A* inactive

----------
- Test system: CRL-7250
- ASSAY_PROTOCOL: Cytotoxic Profiling of Annotated Libraries Using Quantitative High-Throughput Screening (AID 1296008); also: % is scaled to controls: 0 for no effect and ±100 for the full control effect; nearly all actives have a fitted effect of over 60% in size
- RUN_CONDITIONS: Five cell lines viability, CellTiter-Glo ATP luminescence, 48-72 h; hits give low values
Inconclusive results are not listed. The source made the active and inactive calls. Calls follow the shape of the dose curve; as a rule, active = well fitted inhibition curve with a large enough effect; inconclusive = small, poorly fitted or top-dose-only effect; inactive = flat fitted curve, though single readings scatter.
MEASURE_NAME: max response

The examples below pair each entry with its known result.
[
  {
    "COMPOUND": "C=C1C(=O)O[C@H]2[C@H]1[C@@H](OC(=O)C(C)CO)C[C@@]1(C)[C@H](O)CCC(=O)[C@H]21 (some centres not stated)",
    "max response": "-10.3% (inactive)"
  },
  {
    "COMPOUND": "CC1=CC[C@]2(C(=O)O[C@@H]3O[C@H](CO[C@@H]4O[C@H](CO)[C@@H](O[C@@H]5O[C@@H](C)[C@H](O)[C@@H](O)[C@H]5O)[C@H](O)[C@H]4O)[C@@H](O)[C@H](O)[C@H]3O)CC[C@]3(C)C(CCC4[C@@]5(C)C[C@@H](O)[C@H](O)[C@@](C)(CO)C5CC[C@]43C)C2C1C (some centres not stated)",
    "max response": "-9.97% (inactive)"
  }
]

*Q* State, in one line, measured max response of COc1cc(C2Oc3c(OC)cc(CCCO[C@@H]4O[C@H](CO)[C@@H](O)[C@H](O)[C@H]4O)cc3C2CO)ccc1O (some centres not stated)
*A* -0.0218% (inactive)

----------
- Test system: HEK293T
- ASSAY_PROTOCOL: qHTS assay to identify novel small-molecules to repurpose for Merkel cell carcinoma treatment (AID 1296009); also: nearly all actives have a fitted effect of over 60% in size
- RUN_CONDITIONS: MCC and control cell lines, CellTiter-Glo viability, 72 h; series mostly up to 44.8 µM
Records with an inconclusive call do not appear. The source made the active and inactive calls. Calls follow the shape of the dose curve; as a rule, active = well fitted inhibition curve with a large enough effect; inconclusive = small, poorly fitted or top-dose-only effect; inactive = flat fitted curve, though single readings scatter.
MEASURE_NAME: outcome

[
  {
    "COMPOUND": "CCC(C)/C=C(C)/C=C/C1=CC2=C(Cl)C(=O)C(C)(OC(C)=O)C(=O)C2=CN1CCCC(=O)O (stereo not drawn)",
    "TESTED_SYSTEM": "HEK293T",
    "outcome": "inactive"
  },
  {
    "COMPOUND": "COc1ccccc1[C@@H]1C2=C(CC(C)(C)CC2=O)Nc2n[nH]c(C(F)(F)F)c21",
    "TESTED_SYSTEM": "HEK293T",
    "outcome": "inactive"
  },
  {
    "COMPOUND": "C=C(C)[C@@H]1CC[C@](C)(O)[C@@H](OC(=O)c2ccccc2)C1",
    "TESTED_SYSTEM": "HEK293T",
    "outcome": "inactive"
  },
  {
    "COMPOUND": "CC1=C(CC(=O)O)c2cc(F)ccc2C1=Cc1ccc(S(C)(=O)=O)cc1",
    "TESTED_SYSTEM": "HEK293T",
    "outcome": "inactive"
  },
  {
    "COMPOUND": "O=C(O)c1cc(O[C@@H]2O[C@H](CO[C@@H]3OC[C@@H](O)[C@H](O)[C@H]3O)[C@@H](O)[C@H](O)[C@H]2O)c2ccccc2c1O",
    "TESTED_SYSTEM": "HEK293T",
    "outcome": "inactive"
  },
  {
    "COMPOUND": "COCC(=O)N1CCc2cc(-c3csc(NC(=O)c4cc(OC)cc(OC)c4)n3)ccc21",
    "TESTED_SYSTEM": "HEK293T",
    "outcome": "inactive"
  }
]

*Q* State, in one line, measured outcome of O=C(NCC(=O)N1CC[C@H](NC2CCC(O)(c3ccc(-c4ncccn4)cn3)CC2)C1)c1cccc(C(F)(F)F)c1 (stereo partly drawn)
*A* inactive

*Q* State, in one line, measured outcome of CCn1cc(C2=NOC(C(=O)Nc3c(C)n(C)n(-c4ccccc4)c3=O)C2)c(C)n1 (stereo not drawn)
*A* inactive

----------
- Test system: astro
- ASSAY_PROTOCOL: Drug repurposing screens with cells derived from glioblastoma tumor samples (AID 1345199); also: nearly all actives have a fitted effect of over 40% in size; also: potency is read from the fitted curve at half-maximal effect
- RUN_CONDITIONS: viability, ATP luminescence, 48 h; series mostly up to 45.9 µM
Results filed as inconclusive are left out. The source made the active and inactive calls. The call rests on the fitted dose curve; in most records, active means well fitted inhibition curve with a large enough effect; inconclusive means small, poorly fitted or top-dose-only effect; inactive means flat fitted curve, though single readings scatter.
MEASURE_NAME: Potency

The examples below pair each entry with its known result.
[
  {
    "COMPOUND": "COc1cc([C@@H]2c3cc4c(cc3[C@@H](O[C@@H]3O[C@@H]5CO[C@@H](C)O[C@H]5[C@H](O)[C@H]3O)[C@H]3COC(=O)[C@H]23)OCO4)cc(OC)c1O",
    "Potency": "inactive"
  },
  {
    "COMPOUND": "Cc1cc(CC(C)CC(C)(C)C)n(O)c(=O)c1 (centres undefined) (tested in a mixture with another compound)",
    "Potency": "20 µM (active)"
  },
  {
    "COMPOUND": "C=C1CC[C@@H]2[C@](C)(CO)[C@H](O)CC[C@@]2(C)[C@@H]1C/C=C1/C(=O)OC[C@H]1O",
    "Potency": "25.1 µM (active)"
  },
  {
    "COMPOUND": "C[C@@H]1[C@H](O)[C@@H](C)/C=C/C=C\\C=C\\C=C\\C=C\\C=C\\C=C\\[C@H](O[C@@H]2O[C@H](C)[C@@H](O)[C@H](N)[C@@H]2O)C[C@@H]2O[C@](O)(C[C@@H](O)C[C@@H](O)[C@H](O)CC[C@@H](O)C[C@@H](O)CC(=O)O[C@H]1C)C[C@H](O)[C@H]2C(=O)O (stereo in doubt)",
    "Potency": "inactive"
  },
  {
    "COMPOUND": "CC1(C)C(C=C(Cl)Cl)C1C(=O)OCc1cccc(Oc2ccccc2)c1 (centres undefined)",
    "Potency": "inactive"
  }
]

*Q* State, in one line, measured Potency of Nc1ncnc2c1ncn2[C@@H]1O[C@H](COP(=O)(O)OP(=O)(O)OP(=O)(O)O)[C@@H](O)[C@H]1O
*A* inactive

*Q* State, in one line, measured Potency of NCc1ccccc1CC(=O)N[C@@H]1C(=O)N2C(C(=O)O)=C(CSc3nnnn3CC(=O)O)CS[C@H]12
*A* inactive

*Q* State, in one line, measured Potency of CO[C@H]1C[C@@H]2CC[C@@H](C)[C@@](O)(O2)C(=O)C(=O)N2CCCC[C@H]2C(=O)O[C@H]([C@H](C)C[C@@H]2CC[C@@H](OCCO)[C@H](OC)C2)CC(=O)[C@H](C)/C=C(\C)[C@@H](O)[C@@H](OC)C(=O)[C@H](C)C[C@H](C)/C=C/C=C/C=C/1C
*A* 25.1 µM (active)

*Q* State, in one line, measured Potency of COc1cc(-c2ccc(-[n+]3nc(-c4ccccc4)nn3-c3ccc([N+](=O)[O-])cc3)c(OC)c2)ccc1-[n+]1nc(-c2ccccc2)nn1-c1ccc([N+](=O)[O-])cc1
*A* 3.55 µM (active)

*Q* State, in one line, measured Potency of C=C(NC(=O)C(=C)NC(=O)c1csc(C2=N[C@@H]3c4csc(n4)[C@H]4NC(=O)c5csc(n5)[C@H]([C@](C)(O)[C@@H](C)O)NC(=O)[C@H]5CSC(=N5)C(=CC)NC(=O)C([C@@H](C)O)NC(=O)c5csc(n5)[C@]3(CC2)NC(=O)[C@H](C)NC(=O)C(=C)NC(=O)[C@H](C)NC(=O)C([C@@H](C)CC)NC2C=Cc3c([C@H](C)O)cc(nc3C2O)C(=O)O[C@@H]4C)n1)C(N)=O (some centres undefined)
*A* inactive

*Q* State, in one line, measured Potency of COC(F)(F)C(Cl)Cl
*A* inactive

*Q* State, in one line, measured Potency of CC1=CCC(C(C)(C)O)CC1 (centres undefined)
*A* inactive

*Q* State, in one line, measured Potency of CO[C@H]1C=CO[C@@]2(C)Oc3c(C)c(O)c4c(O)c(c5c(nc6cc(C)ccn65)c4c3C2=O)NC(=O)/C(C)=C\C=C[C@H](C)[C@H](O)[C@@H](C)[C@@H](O)[C@@H](C)[C@H](OC(C)=O)[C@@H]1C
*A* inactive
